RUN_DESCRIPTION: in vitro
Format: in vitro ADME, human
ASSAY_CONDITIONS: human liver microsomes 0.5 mg/mL, with NADPH, compound 0.5 μM; read-out: Human Liver Microsomal Stability CLint (uL/min/mg liver) (converted)
Rule: microsomal CLint below 9 µL/min/mg gives Condition met. Equal to or above 9 µL/min/mg gives Condition not met.

[[record]]
molecule = "CC(=O)[C@H]1CC[C@H]2[C@@H]3CC[C@H]4C[C@](C)(OC(=O)CSC(C)(C)C(=O)NCCN(C)C)CC[C@]4(C)[C@H]3CC[C@]12C [Compound 307]"
label_class = "Condition met"

[[record]]
molecule = "CC(=O)[C@H]1CC[C@H]2[C@@H]3CC[C@H]4C[C@](C)(OC(=O)C5CC5C(=O)NCCN(C)C)CC[C@]4(C)[C@H]3CC[C@]12C (some centres unmarked) [Compound 411]"
label_class = "Condition met"

[[record]]
molecule = "CNCC(=O)O[C@]1(C)CC[C@@]2(C)[C@@H](CC[C@@H]3[C@@H]2CC[C@]2(C)[C@@H](C(C)=O)CC[C@@H]32)C1 [Compound 114]"
label_class = "Condition met"

[[record]]
molecule = "CC(=O)[C@H]1CC[C@H]2[C@@H]3CC[C@H]4C[C@](C)(OC(=O)CNC(=O)CN5CCOCC5)CC[C@]4(C)[C@H]3CC[C@]12C [Compound 112]"
label_class = "Condition not met"

[[record]]
molecule = "CC(=O)[C@H]1CC[C@H]2[C@@H]3CC[C@H]4C[C@](C)(OC(=O)COC(=O)CNC(=O)[C@@H](N)C(C)C)CC[C@]4(C)[C@H]3CC[C@]12C [Compound 214]"
label_class = "Condition met"


----------
RUN_DESCRIPTION: Rat liver microsomal stability
Assay type: in vitro ADME
ASSAY_CONDITIONS: rat liver microsomes
Description: For several compounds only human liver microsomal stability was tested. […] The microsomal assays were carried out with and without the addition of NADPH at a final concentration of 1 mM. For negative control samples, NADPH reagent was not added. […] Note that compounds undergo only Phase I metabolism in liver microsomes. CLint=the intrinsic hepatic clearance (uL/min/mg), where CLint is equal to 0.693/(t1/2×Cmp)
VALUE_KIND: Comments: production of GNX (ganaxolone) in rat liver microsomes

[[record]]
compound = "CC(=O)[C@H]1CC[C@H]2[C@@H]3CC[C@H]4C[C@](C)(OC(=O)COC(=O)C(C)(C)OC(=O)CN(CCO)CCO)CC[C@]4(C)[C@H]3CC[C@]12C [Compound 228]"
result = "In rat no GNX produced;"

[[record]]
compound = "CC(=O)[C@H]1CC[C@H]2[C@@H]3CC[C@H]4C[C@](C)(OC(=O)COC(=O)C(C)(C)N)CC[C@]4(C)[C@H]3CC[C@]12C [Compound 218]"
result = "In rat no GNX produced;"


----------
RUN_DESCRIPTION: in vitro
Assay type: in vitro ADME, human
ASSAY_CONDITIONS: human, microsomes, 1 h
Items are presented alongside their recorded Human Liver Microsomal Stability no NADPH, % remain 1 h.
VALUE_KIND: Human Liver Microsomal Stability no NADPH, % remain 1 h (%)

[[record]]
chem_smiles = "CC(=O)OCCCN(CCCOC(C)=O)CC(=O)OC(C)(C)C(=O)OCC(=O)O[C@]1(C)CC[C@@]2(C)[C@@H](CC[C@@H]3[C@@H]2CC[C@]2(C)[C@@H](C(C)=O)CC[C@@H]32)C1"
limit_operator = "<"
result_number = 1

[[record]]
chem_smiles = "COCCN(CCOC(C)=O)CC(=O)OC(C)(C)C(=O)OCC(=O)O[C@]1(C)CC[C@@]2(C)[C@@H](CC[C@@H]3[C@@H]2CC[C@]2(C)[C@@H](C(C)=O)CC[C@@H]32)C1"
limit_operator = "<"
result_number = 1

[[record]]
chem_smiles = "CC(=O)[C@H]1CC[C@H]2[C@@H]3CC[C@H]4C[C@](C)(OC(=O)CNC(C)(C)COC(=O)C(C)C)CC[C@]4(C)[C@H]3CC[C@]12C"
limit_operator = "="
result_number = 1.3

[[record]]
chem_smiles = "CC(=O)OCCN(C)CC(=O)OC(C)(C)C(=O)OCC(=O)O[C@]1(C)CC[C@@]2(C)[C@@H](CC[C@@H]3[C@@H]2CC[C@]2(C)[C@@H](C(C)=O)CC[C@@H]32)C1"
limit_operator = "="
result_number = 0.26

[[record]]
chem_smiles = "CC(=O)[C@H]1CC[C@H]2[C@@H]3CC[C@H]4C[C@](C)(OC(=O)COC(=O)[C@@H](C)N5CCOCC5)CC[C@]4(C)[C@H]3CC[C@]12C"
limit_operator = "="
result_number = 99


----------
RUN_DESCRIPTION: in vitro
Assay type: in vitro ADME, human
ASSAY_CONDITIONS: human liver microsomes
VALUE_KIND: Comments: production of GNX (ganaxolone) in human liver microsomes

[[record]]
molecule = "CC(=O)[C@H]1CC[C@H]2[C@@H]3CC[C@H]4C[C@](C)(OC(=O)CNC(=O)CN5CCOCC5)CC[C@]4(C)[C@H]3CC[C@]12C"
result = "In human no GNX produced"

[[record]]
molecule = "CC(=O)[C@H]1CC[C@H]2[C@@H]3CC[C@H]4C[C@](C)(OC(=O)C5CC5C(=O)O)CC[C@]4(C)[C@H]3CC[C@]12C (stereo partly shown)"
result = "In human no GNX produced"

[[record]]
molecule = "CC(=O)[C@H]1CC[C@H]2[C@@H]3CC[C@H]4C[C@](C)(OC(=O)CCC(=O)NCCN(C)C)CC[C@]4(C)[C@H]3CC[C@]12C"
result = "In human no GNX produced"


----------
RUN_DESCRIPTION: Rat liver microsomal stability
Type: in vitro ADME
ASSAY_CONDITIONS: rat liver microsomes 0.5 mg/mL, with NADPH, compound 0.5 μM; read-out: Rat Liver Microsomal Stability CLint (uL/min/mg liver)
Label rule, in plain words: microsomal CLint of 80 µL/min/mg and up is yes, under 80 µL/min/mg is no.

[[record]]
molecule = "CC(=O)[C@H]1CC[C@H]2[C@@H]3CC[C@H]4C[C@](C)(OC(=O)COC(=O)CN5CCOCC5)CC[C@]4(C)[C@H]3CC[C@]12C [Compound 200]"
label_class = "yes"

[[record]]
molecule = "CC(=O)[C@H]1CC[C@H]2[C@@H]3CC[C@H]4C[C@](C)(O)CC[C@]4(C)[C@H]3CC[C@]12C [ganaxolone, Ganaxolone]"
label_class = "yes"

[[record]]
molecule = "CC(=O)[C@H]1CC[C@H]2[C@@H]3CC[C@H]4C[C@](C)(OC(=O)CN)CC[C@]4(C)[C@H]3CC[C@]12C [Compound 111]"
label_class = "no"

[[record]]
molecule = "COCCN(C)CC(=O)O[C@]1(C)CC[C@@]2(C)[C@@H](CC[C@@H]3[C@@H]2CC[C@]2(C)[C@@H](C(C)=O)CC[C@@H]32)C1 [Compound 104]"
label_class = "yes"

[[record]]
molecule = "CC(=O)[C@H]1CC[C@H]2[C@@H]3CC[C@H]4C[C@](C)(OC(=O)COC(=O)C(C)(C)OC(=O)CN(CCO)CCO)CC[C@]4(C)[C@H]3CC[C@]12C [Compound 228]"
label_class = "yes"

[[record]]
molecule = "CC(=O)[C@H]1CC[C@H]2[C@@H]3CC[C@H]4C[C@](C)(OC(=O)COC(=O)C(C)(C)N)CC[C@]4(C)[C@H]3CC[C@]12C [Compound 218]"
label_class = "no"

[[record]]
molecule = "COc1ccccc1N1CCN(CC(=O)O[C@]2(C)CC[C@@]3(C)[C@@H](CC[C@@H]4[C@@H]3CC[C@]3(C)[C@@H](C(C)=O)CC[C@@H]43)C2)CC1 [Compound 100]"
label_class = "yes"

[[record]]
molecule = "CC(=O)[C@H]1CC[C@H]2[C@@H]3CC[C@H]4C[C@](C)(OC(=O)CNCCO)CC[C@]4(C)[C@H]3CC[C@]12C [Compound 107]"
label_class = "no"

[[record]]
molecule = "CC(=O)[C@H]1CC[C@H]2[C@@H]3CC[C@H]4C[C@](C)(OC(=O)CNC(C)(C)C(=O)O)CC[C@]4(C)[C@H]3CC[C@]12C [Compound 120]"
label_class = "no"

[[record]]
molecule = "CC(=O)[C@H]1CC[C@H]2[C@@H]3CC[C@H]4C[C@](C)(OC(=O)CO)CC[C@]4(C)[C@H]3CC[C@]12C [Compound 201]"
label_class = "no"


----------
RUN_DESCRIPTION: Rat liver microsomal stability
Type: in vitro ADME
ASSAY_CONDITIONS: rat, microsomes
Items are presented alongside their recorded half-life.
VALUE_KIND: half-life (min)

[[record]]
compound = "CC(=O)[C@H]1CC[C@H]2[C@@H]3CC[C@H]4C[C@](C)(OC(=O)CN5CCOCC5)CC[C@]4(C)[C@H]3CC[C@]12C [Compound 101]"
value_kind = "half-life"
scale_unit = "min"
result_number = 6.8

[[record]]
compound = "CC(=O)[C@H]1CC[C@H]2[C@@H]3CC[C@H]4C[C@](C)(OC(=O)COC(=O)C(C)(C)O)CC[C@]4(C)[C@H]3CC[C@]12C [Compound 224]"
value_kind = "half-life"
scale_unit = "min"
result_number = 9.8

